Documented IC50 across a set of compounds
# ASSAYED TARGET: UniProt Q06187
# Sequence (Q06187 whole entry): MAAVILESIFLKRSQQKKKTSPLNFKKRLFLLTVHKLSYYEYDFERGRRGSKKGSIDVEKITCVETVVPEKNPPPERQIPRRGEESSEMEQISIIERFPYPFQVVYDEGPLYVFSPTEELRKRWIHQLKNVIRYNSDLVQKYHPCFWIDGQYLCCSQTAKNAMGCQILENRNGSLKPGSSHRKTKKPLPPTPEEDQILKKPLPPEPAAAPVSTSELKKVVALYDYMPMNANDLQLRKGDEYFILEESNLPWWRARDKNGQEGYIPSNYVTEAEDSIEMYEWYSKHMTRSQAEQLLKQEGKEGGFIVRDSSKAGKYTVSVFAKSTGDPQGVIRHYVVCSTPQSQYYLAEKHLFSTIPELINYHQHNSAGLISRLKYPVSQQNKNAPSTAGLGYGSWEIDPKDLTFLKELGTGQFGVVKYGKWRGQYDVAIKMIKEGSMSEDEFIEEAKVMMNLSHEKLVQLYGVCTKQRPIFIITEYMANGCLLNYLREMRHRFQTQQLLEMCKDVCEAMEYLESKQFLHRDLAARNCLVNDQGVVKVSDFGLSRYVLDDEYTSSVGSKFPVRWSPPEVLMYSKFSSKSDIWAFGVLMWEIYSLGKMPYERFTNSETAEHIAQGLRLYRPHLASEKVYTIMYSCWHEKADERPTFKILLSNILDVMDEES
# TEST SUMMARY: BTK IC50 enzyme assay (microfluidic off-chip mobility shift kinase assay)
# DETAILS: incubated for 90 min. at 27 C; read-out: Time Dependent BTK Enzyme Assay IC50
# Procedure: The following describes a microfluidic, off-chip mobility shift kinase assay used to measure inherent potency of compounds against BTK enzyme. Compounds described by embodiments of the present invention were assayed using this protocol and the data from the same is recorded in Table 2 within the column labeled: “Time Dependent BTK Enzyme Assay IC50”. […]

Previously resolved entries follow.
IN: Give its IC50 value. Item: CN(C)C/C=C/C(=O)N1CCC(CNc2ncnc(N)c2-c2ccc(Oc3ccccc3)cc2)CC1 [A153]
OUT: < 1000 nM

IN: Which value of IC50 has been reported for C=CC(=O)N1CCC(CNc2ncnc(N)c2-c2ccc(OC3CCCCC3)cc2)CC1 [A99] in the records?
OUT: < 1000 nM

IN: Name the recorded IC50 for Nc1ncnc(Oc2cccc(NC(=O)CCl)c2)c1-c1ccc(OCc2cccc(F)c2)cc1 [A345] .
OUT: < 100 nM

IN: What value of IC50 has been reported for the following compound? C=CC(=O)Nc1cccc(Oc2ncnc(N)c2-c2cnn(Cc3ccc(C#N)cc3)c2)c1 [A69]
OUT: < 1000 nM

IN: So what's the measured IC50 for this one? C=CC(=O)N1CCC(CNc2ncnc(N)c2-c2ccc(OCc3ccccc3)cc2)C1 (centres unmarked) [A156]
OUT: < 1000 nM

IN: May I ask what IC50 has been recorded for Nc1ncnc(Oc2cccc(NC(=O)CCl)c2)c1-c1ccc(OCc2ccccc2)cc1F [A350] ?
OUT: < 100 nM

IN: I would be grateful if you could share the reported IC50 for C=CC(=O)Nc1cccc(-c2c(N)ncnc2Nc2ccc(Oc3ccccc3)cc2)c1 [A241] .
OUT: < 100 nM

IN: Entry Nc1ncnc(NCC2CCN(c3cccc(Cl)n3)CC2)c1-c1ccc(Oc2ccccc2)cc1 [A337] has what IC50?
OUT: > 1000 nM

IN: What value of IC50 has been reported for the following compound? C=CC(=O)Nc1cccc(Oc2ncnc(N)c2-c2cnn(Cc3ccc(F)cc3)c2)c1 [A187]
OUT: < 100 nM

IN: Sample C=CC(=O)N1CCO[C@H](COc2ncnc(N)c2-c2cnn(Cc3ccccc3)c2)C1 [A193] — what was its IC50?
OUT: > 1000 nM

Others:
IN: Value lookup for IC50; key = C=CC(=O)N1CCC(CNc2ncnc(N)c2-c2ccc(Oc3ccccc3)cc2)(OC)CC1 [A121]
OUT: < 100 nM

IN: Can you share its IC50? I mean this compound: C=CC(=O)Nc1cccc(Oc2ccncc2-c2ccc(Oc3ccccc3)cc2)c1 [A270]
OUT: < 100 nM

IN: # IC50 lookup, item C=CC(=O)N1CCCC(Nc2nc(N)ncc2-c2ccc(Oc3ccccc3)cc2)C1 (centres unmarked) [A150]
OUT: < 1000 nM

IN: # IC50 lookup, item C=CC(=O)Nc1cccc(Oc2ncnc(N)c2-c2cnn(Cc3cc(F)cc(F)c3)c2)c1 [A183]
OUT: < 100 nM

IN: // query IC50 value for entry CN(C)C/C=C/C(=O)N1CC2(CC(Oc3ncnc(N)c3Cl)C2)C1 [A102]
OUT: > 1000 nM

IN: Param item = C=CC(=O)Nc1cccc(Oc2ncnc(N)c2-c2cnn(Cc3cccc(C(=O)OC)c3)c2)c1 [A206] ; retrieve measured IC50.
OUT: < 100 nM

IN: Fill blank: measured IC50 of the compound C=CC(=O)Nc1ccc(F)c(Oc2ccnc(N)c2-c2ccc(Oc3ccccc3)cc2)c1 [A158] is ____.
OUT: < 100 nM

IN: Return reported IC50; argument: C=CC(=O)N1CCC(CNc2ncnc(N)c2-c2ccc(Oc3ccccn3)cc2)CC1 [A335]
OUT: < 1000 nM

IN: Bench note: what IC50 did C#CC(=O)N1CC[C@@H](CNc2ncnc(N)c2-c2cnn(Cc3ccccc3)c2)[C@H](O)C1 [A110] show?
OUT: < 100 nM

IN: Fill in: IC50 of C=CC(=O)N1CCC(CNc2ncnc(N)c2-c2ccc(Oc3ccc(F)cc3)cc2)CC1 [A80] is ___
OUT: < 1000 nM

IN: Consider the compound shown here: C=CC(=O)NCCOc1ncnc(N)c1-c1ccc(Oc2ccccc2)cc1 [A27] What is its recorded IC50?
OUT: > 1000 nM

IN: May I ask what IC50 has been recorded for CN(C)C/C=C/C(=O)N1CC2(CC(Nc3ncnc(N)c3-c3ccc(Oc4ccccc4)cc3)C2)C1 [A127] ?
OUT: < 100 nM

IN: Can you look up the measured IC50 of C=CC(=O)Nc1cccc(-c2c(N)ncnc2N[C@H](C)c2ccccc2)c1 [A311] for me?
OUT: > 1000 nM

IN: Please look up its IC50: C=CC(=O)NCc1ccc(-c2cnccc2Oc2ccc(Oc3ccccc3)cc2)cc1 [A287]
OUT: < 1000 nM

IN: Give its IC50 value. Item: C=CC(=O)N1CCC(CNc2ncnc(N)c2-c2cnn(Cc3ccccc3)c2)CC1 [A33]
OUT: > 1000 nM

IN: Dear colleague, I am looking for the recorded IC50 of the following compound: Nc1ncnc(N[C@@H]2CCCN(S(=O)(=O)c3c(F)c(F)c(F)c(F)c3F)C2)c1-c1ccc(Oc2ccccc2)cc1 [A179]
OUT: < 1000 nM

IN: Given CN(C)C/C=C/C(=O)N1CCC[C@@H](Nc2ncnc(N)c2-c2ccc(Oc3ccccc3)cc2)C1 [A74] , state its recorded IC50.
OUT: < 1000 nM

IN: Requested read-out: IC50. Entry: C=CC(=O)Nc1cccc(Oc2ncnc(N)c2-c2ccc(Oc3ccccn3)cc2)c1 [A162]
OUT: < 100 nM

IN: IC50 for C=CC(=O)N1CCC(CNc2ncnc(N)c2-c2ccc(F)cc2)CC1 [A77] ?
OUT: > 1000 nM

These data points were gathered from patent US9580449B2.
